- System: HOP-62 complex spheroids with HUVEC/MSC, viability
- TEST NAME: Anticancer human tumor HOP-62 cell line growth inhibition [RAS];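 further: spheroids exposed to agents for seven days before readout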
- MEASUREMENT CONDITIONS: curve of first compound; second compound 0.01 µM
ENDPOINT LABEL: pIC50
When answering, recall that pIC50 equals minus log10 of the concentration in mol/L, and write that number alone.

- C=CC(=O)Nc1cc(Nc2nccc(-c3cn(C)c4ccccc34)n2)c(OC)cc1N(C)CCN(C)C + C=CC(=O)N1CCN(c2nc(OCC3CCCN3C)nc3c(F)c(-c4nc(N)cc(C)c4C(F)(F)F)c(Cl)cc23)C(C)C1: 6.43
- CCC(CC)c1cc(NC2CCC(N)C2)n2nccc2n1 (stereo not given) + C=CC(=O)N1CCN(c2nc(OCC3CCCN3C)nc3c(F)c(-c4nc(N)cc(C)c4C(F)(F)F)c(Cl)cc23)C(C)C1: 5.88
- CC(C)NCC(C(=O)N1CCN(c2ncnc3c2C(C)CC3O)CC1)c1ccc(Cl)cc1 (stereo not given) + C=CC(=O)N1CCN(c2nc(OCC3CCCN3C)nc3c(F)c(-c4nc(N)cc(C)c4C(F)(F)F)c(Cl)cc23)C(C)C1: 6.15
- CC1(C)CCC(Nc2ncc(C(F)(F)F)c(-c3c[nH]c4c(P(C)(C)=O)c(C#N)ccc34)n2)CN1 (stereo not given) + C=CC(=O)N1CCN(c2nc(OCC3CCCN3C)nc3c(F)c(-c4nc(N)cc(C)c4C(F)(F)F)c(Cl)cc23)C(C)C1: 9.01
- Nc1ccn(C2OC(CO)C(O)C2(F)F)c(=O)n1 (stereo not given) + C=CC(=O)N1CCN(c2nc(OCC3CCCN3C)nc3c(F)c(-c4nc(N)cc(C)c4C(F)(F)F)c(Cl)cc23)C(C)C1: 8.40

-- ask Fill in the recorded pIC50 for this compound, with HOP-62 complex spheroids with HUVEC/MSC, viability as test system: Cc1nc(N2CCC3(CC2)COC(C)C3N)c(CO)nc1Sc1ccnc(N)c1Cl (stereo not given) + C=CC(=O)N1CCN(c2nc(OCC3CCCN3C)nc3c(F)c(-c4nc(N)cc(C)c4C(F)(F)F)c(Cl)cc23)C(C)C1
-- reply 7.14

-- ask Fill in the recorded pIC50 for this compound, with HOP-62 complex spheroids with HUVEC/MSC, viability as test system: CC(C)n1nc(-c2ccc3oc(N)nc3c2)c2c(N)ncnc21 + C=CC(=O)N1CCN(c2nc(OCC3CCCN3C)nc3c(F)c(-c4nc(N)cc(C)c4C(F)(F)F)c(Cl)cc23)C(C)C1
-- reply 8.44

-- ask Fill in the recorded pIC50 for this compound, with HOP-62 complex spheroids with HUVEC/MSC, viability as test system: C[C@@H](NC(=O)c1ncnc(N)c1Cl)c1ncc(C(=O)Nc2cc(C(F)(F)F)c(Cl)cn2)s1 + C=CC(=O)N1CCN(c2nc(OCC3CCCN3C)nc3c(F)c(-c4nc(N)cc(C)c4C(F)(F)F)c(Cl)cc23)C(C)C1
-- reply 5.06

-- ask Fill in the recorded pIC50 for this compound, with HOP-62 complex spheroids with HUVEC/MSC, viability as test system: CC1(O)CCCC1n1c(=O)c(C(F)F)cc2cnc(NC3CCN(S(C)(=O)=O)CC3)nc21 (stereo not given) + C=CC(=O)N1CCN(c2nc(OCC3CCCN3C)nc3c(F)c(-c4nc(N)cc(C)c4C(F)(F)F)c(Cl)cc23)C(C)C1
-- reply 7.02

-- ask Fill in the recorded pIC50 for this compound, with HOP-62 complex spheroids with HUVEC/MSC, viability as test system: CC(Nc1ccc2c(c1)OCCn1cc(N3C(=O)OCC3C(F)F)nc1-2)C(N)=O (stereo not given) + C=CC(=O)N1CCN(c2nc(OCC3CCCN3C)nc3c(F)c(-c4nc(N)cc(C)c4C(F)(F)F)c(Cl)cc23)C(C)C1
-- reply 7.20

-- ask Fill in the recorded pIC50 for this compound, with HOP-62 complex spheroids with HUVEC/MSC, viability as test system: O=C(c1ccc(F)c(F)c1Nc1ccc(I)cc1F)N1CC(O)([C@@H]2CCCCN2)C1 + C=CC(=O)N1CCN(c2nc(OCC3CCCN3C)nc3c(F)c(-c4nc(N)cc(C)c4C(F)(F)F)c(Cl)cc23)C(C)C1
-- reply 7.42

Data provenance: PubChem BioAssay AID2060892
